Origin of values: patent US6218597A

Target: βAR (β-adrenergic receptor), cardiac sarcolemmal membranes of wild-type FVB/N mice
Conditions: read-out: Kd for ICYP
Measured quantity: Kd

[
  {
    "Compound": "CC(C)(C)NCC(O)COc1cccc2[nH]c(C#N)c([125I])c12 (stereo not shown) [ICYP, ^125 I-iodocyanopindolol]",
    "Target entity": "βAR (β-adrenergic receptor), cardiac sarcolemmal membranes of wild-type FVB/N mice",
    "Measured quantity": "Kd",
    "Obs value": "~20 pM"
  }
]
